Source of measurements: patent US10111854B2

System: L. donovani Ld39 amastigotes (SSG-resistant)
METHOD_NOTES: Anti-amastigote activity in infected PEM, L. donovani Ld39
Assay type: cell-based
COND: IC50 RAW264.7 over IC50 L. donovani Ld39 amastigotes
MEASURED_PARAMETER: Selective index (a)/(c)
Give only the figure.

> print(dat)
                            smiles.repr  endpoint.value
1  NCCOCCOc1ccc(-c2cc(=O)c3ccccc3o2)cc1            22.6

Now consider the entry below.
Prompt: Would you mind telling me what Selective index (a)/(c) value was observed for O=c1cc(-c2ccc(OCCOCCN(CCOCCOc3ccc(-c4cc(=O)c5ccccc5o4)cc3)Cc3ccncc3)cc2)oc2ccccc12 ?
Response: 47.6

* * *

METHOD_NOTES: Cytotoxicity, peritoneal elicited macrophages (PEM)
Format: cell-based, mouse
COND: mouse, Cytotoxicity IC50, PEM
Listed below: pIC50 values for each entry.
pIC50 here is simply -log10 of the concentration when that concentration is written in mol/L.

Solved entries:
> print(dat)
                                   molecule  measured.parameter  endpoint.value
1  O=c1cc(-c2ccc(OCCOCCNC(c3ccccn3)c3ccccn3)cc2)oc2ccccc12 [FM09p]               pIC50            4.90
2  COc1ccnc(CN2CCC(CCOc3ccc(-c4cc(=O)c5ccccc5o4)cc3)CC2)c1OC [FM05b]               pIC50            5.29

Prompt: Would you mind telling me what pIC50 value was observed for COc1c(C)cnc(CN(CCOCCOc2ccc(-c3cc(=O)c4ccccc4o3)cc2)Cc2ncc(C)c(OC)c2C)c1C [FM09i] ?
Response: 5.35

* * *

Tested on: L. major FV1 promastigotes
METHOD_NOTES: Anti-promastigote activity (MTS assay), L. major FV1
Type: cell-based
COND: 72 hours
Experimental: Promastigotes of visceral L. donovani Ld39 and LdHU3, and cutaneous L. amazonensis LV78, L. braziliensis UA847 and L. major FV1 were employed in the study. […] Anti-promastigote activity was determined according to previous procedures (1) by Cell Titer 96® Aqueous Assay (Promega) that employed a tetrazolium compound. […] After 4 hours of incubation, the OD values were determined at 490 nm using automatic microtiter plate reader (Bio-Rad). […]
Structures can show the parent of a compound that is named as a salt.
Listed below: pIC50 values for each entry.
pIC50 here is simply -log10 of the concentration when that concentration is written in mol/L.

Solved entries:
COMPOUND	pIC50
O=c1cc(-c2ccc(OCCN3CCN(Cc4ccncc4)CC3)cc2)oc2ccccc12 [FM01.HCl]	5.17
Cl.O=c1cc(-c2ccc(OCCC3CCN(Cc4ccncc4)CC3)cc2)oc2ccccc12 [FM05.HCl]	5.46
C[C@@H]1[C@H](O)[C@@H](C)/C=C/C=C/C=C/C=C/C=C/C=C/C=C/[C@H](O[C@@H]2O[C@H](C)[C@@H](O)[C@H](N)[C@@H]2O)C[C@@H]2O[C@](O)(C[C@@H](O)C[C@@H](O)[C@H](O)CC[C@@H](O)C[C@@H](O)CC(=O)O[C@H]1C)C[C@H](O)[C@H]2C(=O)O	6.54

Now consider the entry below.
Prompt: Would you mind telling me what pIC50 value was observed for O=c1cc(-c2ccc(OCCOCCN(Cc3ccccn3)Cc3ccccn3)cc2)oc2ccccc12 [FM09.HCl] ?
Response: 5.92
